# Assay system: glucosylceramide synthase (GCS) (Homo sapiens (Human), UniProt Q16739)
# Sequence (Q16739 whole entry): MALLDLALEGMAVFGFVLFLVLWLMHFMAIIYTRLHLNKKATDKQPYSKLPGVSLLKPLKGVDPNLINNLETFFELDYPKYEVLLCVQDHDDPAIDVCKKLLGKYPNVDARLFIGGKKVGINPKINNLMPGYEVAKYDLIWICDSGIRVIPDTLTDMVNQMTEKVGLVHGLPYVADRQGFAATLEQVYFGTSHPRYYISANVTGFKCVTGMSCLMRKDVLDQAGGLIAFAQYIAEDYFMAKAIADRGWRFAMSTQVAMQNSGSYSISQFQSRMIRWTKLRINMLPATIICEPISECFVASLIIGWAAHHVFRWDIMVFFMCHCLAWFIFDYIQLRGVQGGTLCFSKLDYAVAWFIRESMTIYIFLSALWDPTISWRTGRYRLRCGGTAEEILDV
# Measurement description: UDP-Glo glucosylceramide synthase biochemical assay
# Assay context: endogenous GCS in Golgi preparations from human A375 malignant melanoma skin cells; C6 ceramide and UDP-glucose substrates; 20 h incubation; UDP detected by luminescence
Assay metric: EC50 (nM)

Sample answers from the record:
INSERT INTO measurements (compound, assay_metric, recorded_measurement) VALUES
  ('O=C(NC(c1cccnc1)C(F)(F)F)c1cn2cccc(-c3ccccc3OCC(F)(F)F)c2n1 (racemic)', 'EC50', 5.5),
  ('CC(O)c1cn2cc(C(F)(F)F)cc(-c3ccccc3OCC(F)(F)F)c2n1 (single isomer, unassigned)', 'EC50', 5.7),
  ('O=C(Nc1cccnc1)c1cn2cc(C(F)(F)F)cc(-c3ccccc3OCC(F)(F)F)c2n1', 'EC50', 0.029),
  ('CC(C)(O)C1CN=C(c2cn3cc(Cl)cc(-c4ccccc4OCC(F)(F)F)c3n2)O1 (stereo not shown)', 'EC50', 13),
  ('NCC1CN=C(c2cn3cc(Cl)cc(-c4ccccc4OCC(F)(F)F)c3n2)O1 (stereo not shown)', 'EC50', 12);

I. O=C(Nc1ccc[n+]([O-])c1)c1cn2cccc(-c3ccccc3OCC(F)(F)F)c2n1
II. CC(C)(NC(=O)c1cn2cccc(-c3ccccc3OCC(F)(F)F)c2n1)C(F)(F)F
Input: Choose between I and II : whose measured EC50 value is numerically larger? API: response body contains the label of the selected item.
Output: I

###

# Assay system: glucosylceramide synthase (GCS) (Homo sapiens (Human), UniProt Q16739)
# Measurement description: UDP-Glo glucosylceramide synthase biochemical assay
# Assay context: endogenous GCS in Golgi preparations from human A375 malignant melanoma skin cells; C6 ceramide and UDP-glucose substrates; 20 h incubation; UDP detected by luminescence
pEC50: −log10 of the molar value.
Assay metric: pEC50

INSERT INTO assay_data (compound, assay_system, recorded_measurement) VALUES
  ('O=C(N[C@H]1CCOC1)c1cn2cc(Cl)cc(-c3ccccc3OCC(F)(F)F)c2n1', 'glucosylceramide synthase (GCS) (Homo sapiens (Human), UniProt Q16739)', 9.04);

a. O=C(NC12CCC(CO)(CC1)CC2)c1cn2cccc(-c3ccccc3OCC(F)(F)F)c2n1
b. CN1CC2(C1)CN(C(=O)c1cn3cccc(-c4ccccc4OCC(F)(F)F)c3n1)CCO2
c. O=C(NC1CNCCC1(F)F)c1cn2cccc(-c3ccccc3OCC(F)(F)F)c2n1 (racemic)
d. O=C(c1cn2cc(Cl)cc(-c3ccccc3OCC(F)(F)F)c2n1)N1C[C@H]2C(CO)[C@@H]2C1 (stereo partly shown)
Input: Hey, can you sort those compounds up there by pEC50, smallest first? Reply: labels, ordered per the request.
Output: d, b, a, c

I. CC1(NC(=O)c2cn3cc(Cl)cc(-c4ccccc4OCC(F)(F)F)c3n2)CCOC1 (racemic)
II. O=C(N[C@H]1CC[C@H](O)CC1)c1cn2cc(C(F)(F)F)cc(-c3ccccc3OCC(F)(F)F)c2n1
III. CC(C)(NC(=O)c1cn2cc(C#N)cc(-c3ccccc3OCC(F)(F)F)c2n1)C(F)(F)F
IV. CC(C)(O)C1(C)COC(c2cn3cc(Cl)cc(-c4ccccc4OCC(F)(F)F)c3n2)=N1 (stereo not shown)
V. O=C(N[C@H]1C[C@@H](O)C1)c1cc2c(-c3ccccc3OCC(F)(F)F)cccc2cn1
Input: Rank descending by pEC50. Reply: labels, ordered per the request.
Output: I, II, III, V, IV
(I: 9.01, II: 8.68, III: 8.08, V: 7.80, IV: 7.49)

A. O=C(c1cn2cccc(-c3ccccc3OCC(F)(F)F)c2n1)N1CCn2ccnc2C1
B. O=C(c1cn2cccc(-c3ccccc3OCC(F)(F)F)c2n1)N1Cc2cccnc2C1
Input: Choose between A and B : whose measured pEC50 value is numerically larger? API: response body contains the label of the selected item.
Output: A
(A: 8.54, B: 7.44)

1. CC1(O)CCC(NC(=O)c2cn3cc(F)cc(-c4ccccc4OCC(F)(F)F)c3n2)CC1 (stereo not shown)
2. CC(CO)(NC(=O)c1cn2cccc(-c3ccccc3OCC(F)(F)F)c2n1)C(F)(F)F (single isomer, unassigned) [Compound 10]
Input: Which has the smaller recorded pEC50, 1 or 2 ? API: response body contains the label of the selected item.
Output: 2
(2: 8.14, 1: 9.10)

P. O=C(c1cn2cc(C(F)(F)F)cc(-c3ccccc3OCC(F)(F)F)c2n1)N1CCOC2(COC2)C1
Q. CC(C)(NC(=O)c1cn2cc(F)cc(-c3ccccc3OCC(F)(F)F)c2n1)C(F)(F)F
R. CC1(CO)COC(c2cn3cc(Cl)cc(-c4ccccc4OCC(F)(F)F)c3n2)=N1 (stereo not shown)
S. O=C(N[C@@H]1CNCC[C@H]1F)c1cn2cccc(-c3ccccc3OCC(F)(F)F)c2n1 (relative stereo)
Input: Hey, can you sort those compounds up there by pEC50, smallest first? Reply: labels, ordered per the request.
Output: R, Q, S, P
(R: 7.49, Q: 8.77, S: 9.08, P: 9.29)

A. O=C(Nc1cnccc1F)c1cn2cccc(-c3ccccc3OCC(F)(F)F)c2n1
B. O=C(N[C@H]1CC[C@@H](CO)CC1)c1cn2cc(F)cc(-c3ccccc3OCC(F)(F)F)c2n1
Input: Which has the smaller recorded pEC50, A or B ? API: response body contains the label of the selected item.
Output: B

A. O=C(Nc1ccc2cccc(-c3ccccc3OCC(F)(F)F)c2n1)[C@H]1C[C@@H](O)C1
B. N#C[C@@]1(NC(=O)c2cn3cccc(-c4ccccc4OCC(F)(F)F)c3n2)CCOC1
Input: Which has the smaller recorded pEC50, A or B ? API: response body contains the label of the selected item.
Output: A
(A: 7.96, B: 8.23)

A. O=C(NCc1ccccn1)c1cn2cccc(-c3ccccc3OCC(F)(F)F)c2n1
B. O=C(NC12CCC(O)(CC1)C2)c1cn2cc(Cl)cc(-c3ccccc3OCC(F)(F)F)c2n1
C. O=C(N[C@H]1CC[C@H](O)CC1)c1cn2cc(Cl)cc(-c3ccccc3OCC(F)(F)F)c2n1
Input: Rank descending by pEC50. Reply: labels, ordered per the request.
Output: C, B, A
(C: 9.44, B: 8.60, A: 7.89)

The reported numbers originate from patent US20240018140A1.
